# system name: UniProtKB O60674
# Sequence (O60674 whole entry): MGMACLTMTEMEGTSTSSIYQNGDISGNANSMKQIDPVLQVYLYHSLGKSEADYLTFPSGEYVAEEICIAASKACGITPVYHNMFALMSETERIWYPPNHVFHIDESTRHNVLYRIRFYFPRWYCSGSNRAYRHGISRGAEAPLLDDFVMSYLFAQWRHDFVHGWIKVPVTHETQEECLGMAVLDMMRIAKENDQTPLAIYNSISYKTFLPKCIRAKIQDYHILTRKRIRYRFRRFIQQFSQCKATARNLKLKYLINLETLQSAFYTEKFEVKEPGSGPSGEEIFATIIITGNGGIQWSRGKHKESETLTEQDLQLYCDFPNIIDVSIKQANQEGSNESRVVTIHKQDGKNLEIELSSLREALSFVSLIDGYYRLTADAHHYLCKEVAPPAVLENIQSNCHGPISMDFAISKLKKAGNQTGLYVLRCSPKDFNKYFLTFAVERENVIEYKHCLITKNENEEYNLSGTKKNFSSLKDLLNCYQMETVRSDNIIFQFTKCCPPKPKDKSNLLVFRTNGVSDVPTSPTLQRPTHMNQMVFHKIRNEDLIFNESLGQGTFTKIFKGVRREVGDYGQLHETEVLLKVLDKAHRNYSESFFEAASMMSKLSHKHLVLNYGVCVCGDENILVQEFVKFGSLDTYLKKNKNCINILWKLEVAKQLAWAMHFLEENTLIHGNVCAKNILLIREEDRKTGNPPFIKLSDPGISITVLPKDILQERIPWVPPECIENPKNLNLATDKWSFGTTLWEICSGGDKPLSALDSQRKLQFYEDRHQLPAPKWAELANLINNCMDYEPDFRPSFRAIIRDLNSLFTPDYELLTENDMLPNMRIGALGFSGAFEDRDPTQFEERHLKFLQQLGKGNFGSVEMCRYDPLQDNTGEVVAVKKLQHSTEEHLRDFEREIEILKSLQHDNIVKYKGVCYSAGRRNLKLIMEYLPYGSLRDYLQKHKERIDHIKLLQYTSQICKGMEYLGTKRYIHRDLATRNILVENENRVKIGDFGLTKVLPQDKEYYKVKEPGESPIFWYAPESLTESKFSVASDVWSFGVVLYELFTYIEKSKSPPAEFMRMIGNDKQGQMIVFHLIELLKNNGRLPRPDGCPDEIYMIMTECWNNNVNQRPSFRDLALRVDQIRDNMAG
# protocol details: experiment of inhibiting kinase activity (Caliper mobility shift assay), JAK2
# Format: biochemical
# condition details: at 10 nM; read-out: inhibition rate JAK2
quantity: inhibition at 0.01 µM

[[record]]
mol = "CN1CCOc2ccc(Nc3ncc(Cl)c(Nc4cccc(NC(=O)[C@H]5C[C@H](N)C5)c4)n3)cc2OCC1"
value_observed = "40 to 79%"

[[record]]
mol = "CCS(=O)(=O)N1CC(CC#N)(n2cc(-c3nc(Nc4ccc5c(c4)OCCN(C)CCOCCO5)nc4[nH]ccc34)cn2)C1"
value_observed = "> 80%"

[[record]]
mol = "CN1CCOc2ccc(Nc3nc(N4C[C@H]5CC[C@@H](C4)N5C(=O)C4CC4)c4cc[nH]c4n3)cc2OCC1"
value_observed = "> 80%"

[[record]]
mol = "CN1CCOCCOc2cc(Nc3ncc(F)c(-c4ccc(C(=O)NCC#N)cc4)n3)ccc2OCC1"
value_observed = "40 to 79%"

[[record]]
mol = "CN1CCOCCOc2cc(Nc3ncc(F)c(Nc4ccc5[nH]ccc5c4)n3)ccc2OCC1"
value_observed = "40 to 79%"

[[record]]
mol = "CN1CCOCCOc2cc(Nc3nc(-c4cnn([C@@H](CC#N)C5CCCC5)c4)c4cc[nH]c4n3)ccc2OCC1"
value_observed = "> 80%"

[[record]]
mol = "CC(=O)N1CCOCCOc2cc(Nc3nc(Nc4ccccc4S(=O)(=O)C(C)C)c4cc[nH]c4n3)ccc2OCC1"
value_observed = "40 to 79%"

[[record]]
mol = "CN1CCOCCOc2cc(Nc3nc(-c4ccc(C(=O)NCC#N)cc4)c4cc[nH]c4n3)ccc2OCC1"
value_observed = "> 80%"

[[record]]
mol = "CN1CCOCCOc2cc(Nc3nc(Nc4ccccc4NS(C)(=O)=O)c4cc[nH]c4n3)ccc2OCC1"
value_observed = "40 to 79%"

[[record]]
mol = "CN1CCOc2ccc(Nc3nc(-c4ccc(C(=O)NCC#N)cc4)c4cc[nH]c4n3)cc2OCC1"
value_observed = "40 to 79%"

[[record]]
mol = "CCS(=O)(=O)N1CC(CC#N)(n2cc(-c3nc(Nc4ccc5c(c4)OCCN(C)CCO5)ncc3F)cn2)C1"
value_observed = "40 to 79%"

[[record]]
mol = "C=CC(=O)Nc1cccc(Nc2nc(Nc3ccc4c(c3)OCCN(C)CCO4)ncc2Cl)c1"
value_observed = "25 to 39%"

[[record]]
mol = "CN1CCOCCOc2ccc(Nc3nc(-c4ccc(C(=O)NCC#N)cc4)c4cc[nH]c4n3)cc2OCC1"
value_observed = "> 80%"

[[record]]
mol = "CN1CCOc2ccc(Nc3nc(Nc4ccccc4P(C)(C)=O)c4cc[nH]c4n3)cc2OCC1"
value_observed = "> 80%"

[[record]]
mol = "CN1CCOc2ccc(Nc3nc(-c4cnn([C@H](CC#N)C5CCCC5)c4)c4cc[nH]c4n3)cc2OCC1"
value_observed = "> 80%"


----------
# system name: UniProt Q5S007
# Sequence (Q5S007 whole entry): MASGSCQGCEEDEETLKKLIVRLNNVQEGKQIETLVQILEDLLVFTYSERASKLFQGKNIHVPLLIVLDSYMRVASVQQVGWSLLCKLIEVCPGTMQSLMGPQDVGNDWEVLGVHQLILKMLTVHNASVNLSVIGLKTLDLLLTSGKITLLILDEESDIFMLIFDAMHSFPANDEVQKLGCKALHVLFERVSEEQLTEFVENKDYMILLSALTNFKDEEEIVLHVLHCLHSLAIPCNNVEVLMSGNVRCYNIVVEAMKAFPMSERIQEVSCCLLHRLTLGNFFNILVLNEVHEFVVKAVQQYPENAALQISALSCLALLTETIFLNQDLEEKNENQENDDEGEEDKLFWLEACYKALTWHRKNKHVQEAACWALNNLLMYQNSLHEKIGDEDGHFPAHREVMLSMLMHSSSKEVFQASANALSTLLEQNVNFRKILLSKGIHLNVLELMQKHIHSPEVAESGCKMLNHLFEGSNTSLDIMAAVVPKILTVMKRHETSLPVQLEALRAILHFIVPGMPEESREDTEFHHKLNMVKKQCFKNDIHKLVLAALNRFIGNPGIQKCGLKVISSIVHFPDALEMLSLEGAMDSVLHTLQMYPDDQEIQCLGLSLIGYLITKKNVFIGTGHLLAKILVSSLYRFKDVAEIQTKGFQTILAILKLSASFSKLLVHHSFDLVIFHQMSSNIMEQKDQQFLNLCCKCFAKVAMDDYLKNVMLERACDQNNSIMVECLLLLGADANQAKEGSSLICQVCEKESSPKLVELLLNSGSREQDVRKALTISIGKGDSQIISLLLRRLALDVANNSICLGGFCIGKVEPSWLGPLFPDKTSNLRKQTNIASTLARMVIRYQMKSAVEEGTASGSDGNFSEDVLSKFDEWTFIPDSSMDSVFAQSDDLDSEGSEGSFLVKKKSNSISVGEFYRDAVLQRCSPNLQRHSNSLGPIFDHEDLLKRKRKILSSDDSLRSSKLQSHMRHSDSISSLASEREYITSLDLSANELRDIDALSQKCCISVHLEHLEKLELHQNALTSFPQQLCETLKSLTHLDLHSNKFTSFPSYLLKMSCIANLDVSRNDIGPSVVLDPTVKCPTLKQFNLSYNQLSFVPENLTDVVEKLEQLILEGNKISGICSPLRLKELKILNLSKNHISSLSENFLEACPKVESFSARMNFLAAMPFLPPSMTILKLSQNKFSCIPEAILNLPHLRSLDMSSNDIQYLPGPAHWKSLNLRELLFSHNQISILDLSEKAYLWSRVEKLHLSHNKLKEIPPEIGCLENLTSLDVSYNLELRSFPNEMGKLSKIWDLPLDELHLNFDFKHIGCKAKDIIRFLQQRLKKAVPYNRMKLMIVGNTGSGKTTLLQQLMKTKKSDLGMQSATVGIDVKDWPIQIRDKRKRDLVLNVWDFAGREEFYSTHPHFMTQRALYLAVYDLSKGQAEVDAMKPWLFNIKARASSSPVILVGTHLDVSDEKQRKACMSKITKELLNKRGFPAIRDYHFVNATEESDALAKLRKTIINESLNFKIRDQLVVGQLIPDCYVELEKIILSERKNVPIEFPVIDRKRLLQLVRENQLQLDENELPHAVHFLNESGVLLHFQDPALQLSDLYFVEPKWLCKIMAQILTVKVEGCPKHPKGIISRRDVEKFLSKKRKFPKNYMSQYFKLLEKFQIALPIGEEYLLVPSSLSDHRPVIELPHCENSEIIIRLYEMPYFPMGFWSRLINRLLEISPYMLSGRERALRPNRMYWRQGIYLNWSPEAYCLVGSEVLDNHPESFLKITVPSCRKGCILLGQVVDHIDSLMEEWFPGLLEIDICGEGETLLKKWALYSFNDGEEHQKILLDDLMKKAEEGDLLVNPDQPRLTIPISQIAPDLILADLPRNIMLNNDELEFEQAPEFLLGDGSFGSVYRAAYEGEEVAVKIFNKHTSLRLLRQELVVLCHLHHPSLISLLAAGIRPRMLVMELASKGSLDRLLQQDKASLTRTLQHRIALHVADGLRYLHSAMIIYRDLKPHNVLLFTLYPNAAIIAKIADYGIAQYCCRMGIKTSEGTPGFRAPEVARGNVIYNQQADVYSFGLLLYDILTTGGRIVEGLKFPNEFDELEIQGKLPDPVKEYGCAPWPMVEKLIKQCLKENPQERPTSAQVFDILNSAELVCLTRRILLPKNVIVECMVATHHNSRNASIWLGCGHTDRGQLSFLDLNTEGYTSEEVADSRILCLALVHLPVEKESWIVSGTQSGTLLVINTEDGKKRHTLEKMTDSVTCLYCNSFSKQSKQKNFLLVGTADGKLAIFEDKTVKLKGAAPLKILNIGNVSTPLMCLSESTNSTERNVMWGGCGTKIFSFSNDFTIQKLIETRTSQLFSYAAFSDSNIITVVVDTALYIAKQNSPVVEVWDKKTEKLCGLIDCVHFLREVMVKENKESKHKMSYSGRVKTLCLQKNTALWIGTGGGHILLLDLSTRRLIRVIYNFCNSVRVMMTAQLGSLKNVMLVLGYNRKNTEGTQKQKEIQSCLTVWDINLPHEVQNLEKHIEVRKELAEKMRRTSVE
# protocol details: experiment of inhibiting kinase activity, LRRK2
# Type: biochemical
# condition details: kinase activity assay, Table 3
# Method: The inhibition rates of tested compounds on JAK1, JAK2, JAK3, TYK2, CDK7, CDK9, EGFR (T790M) and LRRK2 kinases were measured. The test concentrations of the compounds were 10 nM and 100 nM, and the detection was performed by replicate wells. Alternatively, compounds were 3-fold serial diluted from 10 µM for 10 concentrations in replicate wells.
quantity: IC50

[[record]]
compound = "CC(C)S(=O)(=O)c1ccccc1Nc1nc(Nc2ccc3c(c2)OCCN(C)CCO3)ncc1C(F)(F)F [Example 82]"
system_name = "UniProt Q5S007"
value_observed = "< 50 nM"

[[record]]
compound = "CC(C)S(=O)(=O)c1ccccc1Nc1nc(Nc2ccc3c(c2)OCCN(C)CCOCCO3)nc2[nH]ncc12 [Example 12]"
system_name = "UniProt Q5S007"
value_observed = "< 50 nM"

[[record]]
compound = "CN1CCOc2ccc(Nc3nc(-c4ccc(C(=O)NCC#N)cc4)c4cn[nH]c4n3)cc2OCC1 [Example 38]"
system_name = "UniProt Q5S007"
value_observed = "50 to 200 nM"

[[record]]
compound = "CN1CCOc2ccc(Nc3ncc(F)c(-c4ccc(C(=O)NCC#N)cc4)n3)cc2OCC1 [Example 15]"
system_name = "UniProt Q5S007"
value_observed = "50 to 200 nM"

[[record]]
compound = "CN1CCOc2ccc(Nc3ncc(C(F)(F)F)c(Nc4ccccc4P(C)(C)=O)n3)cc2OCC1 [Example 83]"
system_name = "UniProt Q5S007"
value_observed = "< 50 nM"

[[record]]
compound = "CN1CCOCCOc2cc(Nc3nc(Nc4ccccc4P(C)(C)=O)c4cn[nH]c4n3)ccc2OCC1 [Example 33]"
system_name = "UniProt Q5S007"
value_observed = "< 50 nM"

[[record]]
compound = "CCS(=O)(=O)N1CC(CC#N)(n2cc(-c3nc(Nc4ccc5c(c4)OCCN(C)CCO5)nc4[nH]ncc34)cn2)C1 [Example 29]"
system_name = "UniProt Q5S007"
value_observed = "50 to 200 nM"

